MEASURED TARGET: human TPH1 (Homo sapiens (Human))
Sequence (P17752 whole entry): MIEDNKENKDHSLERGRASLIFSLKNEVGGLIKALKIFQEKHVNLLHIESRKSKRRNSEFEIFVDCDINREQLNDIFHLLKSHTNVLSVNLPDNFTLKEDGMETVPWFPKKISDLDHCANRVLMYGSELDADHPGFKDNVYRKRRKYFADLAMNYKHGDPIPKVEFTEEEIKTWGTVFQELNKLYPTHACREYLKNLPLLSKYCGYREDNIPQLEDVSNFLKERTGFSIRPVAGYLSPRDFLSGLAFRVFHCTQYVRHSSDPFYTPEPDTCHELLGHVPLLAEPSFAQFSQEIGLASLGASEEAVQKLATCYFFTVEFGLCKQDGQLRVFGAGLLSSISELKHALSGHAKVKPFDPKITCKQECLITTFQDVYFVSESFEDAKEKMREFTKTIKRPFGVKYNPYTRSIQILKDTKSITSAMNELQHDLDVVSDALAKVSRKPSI
MEASUREMENT DESCRIPTION: Biochemical in vitro assay using fluorescence readout (TPH1 inhibition)
CONDITION DETAILS: human TPH1, fluorescence readout
Field: IC50. Provide a value for each of the compounds that follow.
Give bare numbers, in nM.

COMPOUND	MEASURED TARGET	ENDPOINT RESULT
Cc1ccc(C2c3c(nc4sc(C(F)F)nn34)CCN2C(=O)COc2ccc(NS(C)(=O)=O)nc2Cl)c(F)c1 (centres unmarked) [Example 8.2.1]	human TPH1 (Homo sapiens (Human))	24
Cc1nn2c3c(nc2s1)CCN(C(=O)COc1ccc(C(F)(F)F)cc1Cl)C3c1sc(C(=O)N(C)C)cc1F (centres unmarked) [Example 1.24.3]	human TPH1 (Homo sapiens (Human))	8
Cc1nn2c3c(nc2s1)CCN(C(=O)COc1ccc(C2(N(C)C)CC2)nc1Cl)C3c1ccc(Cl)cc1F (centres unmarked) [Example 1.4.44]	human TPH1 (Homo sapiens (Human))	51

Would you mind listing IC50 for each of the following compounds?
1. Cc1cnc([C@H]2c3c(nc4sc(C)nn34)CCN2C(=O)COc2ccc(N(C)S(C)(=O)=O)nc2Cl)c(F)c1 [Example 1.31.15]
2. Cc1nn2c3c(nc2s1)CCN(C(=O)COc1ccc(C(F)(F)F)nc1Cl)C3c1sccc1F (centres unmarked) [Example 1.23.3]
3. Cc1nn2c3c(nc2s1)CCN(C(=O)COc1cccnc1C(F)(F)F)C3c1ccc(C2CC2)cc1F (centres unmarked) [Example 1.6.13]
4. CNC(=O)c1cc(F)c(C2c3c(nc4sc(C)nn34)CCN2C(=O)COc2ccc(C#N)cc2Cl)s1 (centres unmarked) [Example 1.25.8]
5. CCc1nn2c3c(nc2s1)CCN(C(=O)COc1ccc(-c2ncco2)nc1Cl)C3c1ccc(Cl)cc1F (centres unmarked) [Example 3.1.3]

Result:
[9, 20, 4, 43, 12]

----------
MEASURED TARGET: UniProt P17752
MEASUREMENT DESCRIPTION: Biochemical in vitro assay using fluorescence readout (TPH1 inhibition)
CONDITION DETAILS: human TPH1, fluorescence readout
READOUT TYPE: log10 IC50 (log10 of the value in nM)
Hi team, quick reminder: these entries are log10 of IC50 (nM).

Solved cases below.
MOLECULE	READOUT TYPE	ENDPOINT RESULT
Cc1nn2c3c(nc2s1)CCN(C(=O)COc1ccc(C(=O)N(C)C)nc1Cl)C3c1ccc(OC(F)F)cc1F (centres unmarked)	log10 IC50	1.15
Cc1cc(Cl)ccc1OCC(=O)N1CCc2nc3sccn3c2C1c1c(C)nn(C)c1C (centres unmarked)	log10 IC50	1.30
Cc1nn2c3c(nc2s1)CCN(C(=O)COc1ccc(N2CC(F)(F)C2)nc1Cl)C3c1sc(C(=O)N(C)C)cc1F (centres unmarked)	log10 IC50	0.70
CC(=O)Nc1ccc(C2c3c(nc4sc(C)nn34)CCN2C(=O)COc2ccc(N3CCOCC3)nc2Cl)s1 (centres unmarked)	log10 IC50	1.73
CNC(=O)c1cc(F)c(C2c3c(nc4sc(C)nn34)CCN2C(=O)COc2ccc(C(=O)N(C)C)nc2Cl)s1 (centres unmarked)	log10 IC50	0.78
COC(=O)c1cnc(C2c3c(nc4sc(C)nn34)CCN2C(=O)COc2ccc(N3CCOCC3)nc2Cl)s1 (centres unmarked)	log10 IC50	0.85
Cc1nn2c3c(nc2s1)CCN(C(=O)COc1ccc(N(C)C)nc1Cl)C3c1ccc(Cl)cc1F (centres unmarked)	log10 IC50	0.78
Cc1nc(C)c(C2c3c(nc4sc(C)nn34)CCN2C(=O)COc2ccc(NS(C)(=O)=O)nc2Cl)s1 (centres unmarked)	log10 IC50	0.95
Cc1cnc([C@H]2c3c(nc4sc(C)nn34)CCN2C(=O)COc2ccc(N3CCCS3(=O)=O)nc2Cl)c(F)c1	log10 IC50	0.90
COCCOc1ccc(C2c3c(nc4sc(C)nn34)CCN2C(=O)COc2ccc(C(=O)NC3CC3)nc2Cl)c(F)c1 (centres unmarked)	log10 IC50	1.38

Would you mind listing log10 IC50 for each of the following molecules?
1. CCc1nc(C)ccc1OCC(=O)N1CCc2nc3sc(C)nn3c2C1c1cnc(C2CC2)nc1C (centres unmarked)
2. Cc1ncc(OCC(=O)N2CCc3nc4sc(C)nn4c3C2c2ccc(C3CC3)cc2F)c(C)n1 (centres unmarked)
3. Cc1nn2c3c(nc2s1)CCN(C(=O)COc1ccc(C(F)(F)F)cc1Cl)C3c1scnc1C (centres unmarked)
4. Cc1nn2c3c(nc2s1)CCN(C(=O)COc1ccc(N2CCOCC2)nc1Cl)C3c1nc(-c2ccccc2)no1 (centres unmarked)

Result:
1: 1.58; 2: 2.21; 3: 1.00; 4: 0.60

Would you mind listing log10 IC50 for each of the following molecules?
1. Cc1nn2c3c(nc2s1)CCN(C(=O)COc1ccc(I)nc1Cl)C3c1ccc(Cl)cc1F (centres unmarked)
2. Cc1nn2c3c(nc2s1)CCN(C(=O)COc1ccc(C#N)cc1Cl)C3c1sc(C(=O)N(C)C)cc1F (centres unmarked)
3. COC1(C)CN(c2ccc(OCC(=O)N3CCc4nc5sc(C)nn5c4[C@@H]3c3ncc(C)cc3F)c(Cl)n2)C1
4. Cc1nn2c3c(nc2s1)CCN(C(=O)C1(Oc2ccc(C(=O)N(C)C)nc2Cl)CC1)C3c1ccc(Cl)cc1F (centres unmarked)
5. CNC(=O)c1ccc(OCC(=O)N2CCc3nc4sc(C)nn4c3C2c2ncc(C)cc2F)c(Cl)n1 (centres unmarked)
6. O=C(COc1cccc(C(F)(F)F)c1Cl)N1CCc2nc3sccn3c2C1c1nc2ccccc2s1 (centres unmarked)
7. CNC(=O)c1ccc(OCC(=O)N2CCc3nc4sc(C)nn4c3C2c2ncc(Cl)cc2F)c(Cl)n1 (centres unmarked)

Result:
1. 0.90
2. 1.15
3. 1.36
4. 1.59
5. 0.85
6. 1.45
7. 0.78
